# condition.parameters: in n-propanol, 278.15 K
metric.name: solubility (mole fraction)
Numbers only.

## Task Consider the compound Nc1cccc(Cl)c1C(=O)O . State its measured solubility (mole fraction).
## Result 0.0203

---

# condition.parameters: in n-heptanol, 313.15 K
metric.name: solubility (mole fraction)

## Task Using the record for Nc1cccc(Cl)c1C(=O)O , state its measured solubility (mole fraction).
## Result 0.0507

---

# condition.parameters: in cyclohexane, 313.15 K
metric.name: solubility (mole fraction)
Give bare numbers.

## Task Specify measured solubility (mole fraction) for Nc1cccc(Cl)c1C(=O)O .
## Result 0.000269

---

# condition.parameters: in isobutanol, 298.15 K
metric.name: solubility (mole fraction)
Numbers only.

## Task For the compound Nc1cccc(Cl)c1C(=O)O , report solubility (mole fraction).
## Result 0.0308

---

# condition.parameters: in ethanol, 313.15 K
metric.name: solubility (mole fraction)

## Task # return recorded solubility (mole fraction) for entry Nc1cccc(Cl)c1C(=O)O
## Result 0.1

---

# condition.parameters: in NMP, 323.15 K
metric.name: solubility (mole fraction)

## Task Dear colleague, please send me the reported solubility (mole fraction) for Nc1cccc(Cl)c1C(=O)O when you can.
## Result 0.204

---

# condition.parameters: in isopropanol, 323.15 K
metric.name: solubility (mole fraction)
Answers are plain numbers.

## Task Could you please provide reported solubility (mole fraction) for Nc1cccc(Cl)c1C(=O)O ? Thanks!
## Result 0.0982

---

# condition.parameters: in n-propanol, 313.15 K
metric.name: solubility (mole fraction)
One number for each entry.

## Task // fetch solubility (mole fraction) given entry Nc1cccc(Cl)c1C(=O)O
## Result 0.0718

---

# condition.parameters: in toluene, 298.15 K
metric.name: solubility (mole fraction)
One number for each entry.

## Task Specify solubility (mole fraction) for Nc1cccc(Cl)c1C(=O)O and stop.
## Result 0.00924

---

# condition.parameters: in cyclohexane, 323.15 K
metric.name: solubility (mole fraction)
Answers are plain numbers.

## Task Please list solubility (mole fraction) recorded for the molecule Nc1cccc(Cl)c1C(=O)O
## Result 0.000445

---

# condition.parameters: in ethylene glycol, 278.15 K
metric.name: solubility (mole fraction)
Give bare numbers.

## Task Quickly give me recorded solubility (mole fraction) for Nc1cccc(Cl)c1C(=O)O
## Result 0.0133

---

# condition.parameters: in ethanol, 298.15 K
metric.name: solubility (mole fraction)
Give bare numbers.

## Task For the molecule Nc1cccc(Cl)c1C(=O)O , report solubility (mole fraction).
## Result 0.0584

---

# condition.parameters: in n-propanol, 308.15 K
metric.name: solubility (mole fraction)
Numbers only.

## Task Item Nc1cccc(Cl)c1C(=O)O : provide solubility (mole fraction)
## Result 0.0592

---

# condition.parameters: in cyclohexane, 293.15 K
metric.name: solubility (mole fraction)

## Task Please supply the value of reported solubility (mole fraction) for the item Nc1cccc(Cl)c1C(=O)O
## Result 8.7e-05

---

# condition.parameters: in isobutanol, 308.15 K
metric.name: solubility (mole fraction)
Numbers only.

## Task Tell us which solubility (mole fraction) value is on record for Nc1cccc(Cl)c1C(=O)O
## Result 0.047

---

# condition.parameters: in toluene, 278.15 K
metric.name: solubility (mole fraction)
One number for each entry.

## Task Give the reported solubility (mole fraction) for this molecule. Nc1cccc(Cl)c1C(=O)O
## Result 0.00446

---

# condition.parameters: in ethanol, 308.15 K
metric.name: solubility (mole fraction)

## Task Provide solubility (mole fraction) value for the following compound: Nc1cccc(Cl)c1C(=O)O
## Result 0.0831

---

# condition.parameters: in ethylene glycol, 288.15 K
metric.name: solubility (mole fraction)
Answers are plain numbers.

## Task Look up and state reported solubility (mole fraction) for Nc1cccc(Cl)c1C(=O)O
## Result 0.0225

---

# condition.parameters: in isopropanol, 293.15 K
metric.name: solubility (mole fraction)
One number for each entry.

## Task Provide only the value of recorded solubility (mole fraction) for Nc1cccc(Cl)c1C(=O)O
## Result 0.0332

---

# condition.parameters: in NMP, 298.15 K
metric.name: solubility (mole fraction)
Answers are plain numbers.

## Task Please report solubility (mole fraction) for the following molecule: Nc1cccc(Cl)c1C(=O)O
## Result 0.106

---

# condition.parameters: in isopropanol, 318.15 K
metric.name: solubility (mole fraction)
Give bare numbers.

## Task Supply recorded solubility (mole fraction) for Nc1cccc(Cl)c1C(=O)O here.
## Result 0.0819

---

# condition.parameters: in ethyl acetate, 308.15 K
metric.name: solubility (mole fraction)
One number for each entry.

## Task For the molecule Nc1cccc(Cl)c1C(=O)O , give its reported solubility (mole fraction).
## Result 0.0731

---

# condition.parameters: in cyclohexane, 303.15 K
metric.name: solubility (mole fraction)
Numbers only.

## Task Quickly give me recorded solubility (mole fraction) for Nc1cccc(Cl)c1C(=O)O
## Result 0.000155

---

# condition.parameters: in n-heptanol, 323.15 K
metric.name: solubility (mole fraction)
Give bare numbers.

## Task Dear colleague, please send me the reported solubility (mole fraction) for Nc1cccc(Cl)c1C(=O)O when you can.
## Result 0.0776

---

# condition.parameters: in toluene, 323.15 K
metric.name: solubility (mole fraction)
One number for each entry.

## Task Let me know recorded solubility (mole fraction) for Nc1cccc(Cl)c1C(=O)O , thanks.
## Result 0.0207

---

# condition.parameters: in ethylene glycol, 303.15 K
metric.name: solubility (mole fraction)
Give bare numbers.

## Task Note down solubility (mole fraction) recorded for Nc1cccc(Cl)c1C(=O)O
## Result 0.0423

---

# condition.parameters: in acetonitrile, 288.15 K
metric.name: solubility (mole fraction)

## Task Determine from records and report solubility (mole fraction) for Nc1cccc(Cl)c1C(=O)O
## Result 0.0129

---

# condition.parameters: in water, 313.15 K
metric.name: solubility (mole fraction)
Answers are plain numbers.

## Task Please report the measured solubility (mole fraction) for Nc1cccc(Cl)c1C(=O)O
## Result 0.00203

---

# condition.parameters: in n-octanol, 298.15 K
metric.name: solubility (mole fraction)

## Task Return the recorded solubility (mole fraction) value; entry: Nc1cccc(Cl)c1C(=O)O
## Result 0.0241

---

# condition.parameters: in n-butanol, 283.15 K
metric.name: solubility (mole fraction)
Give bare numbers.

## Task Report measured solubility (mole fraction); entry is Nc1cccc(Cl)c1C(=O)O
## Result 0.0208

---

# condition.parameters: in toluene, 303.15 K
metric.name: solubility (mole fraction)
One number for each entry.

## Task Check the records and state solubility (mole fraction) for Nc1cccc(Cl)c1C(=O)O
## Result 0.0112

---

# condition.parameters: in n-propanol, 318.15 K
metric.name: solubility (mole fraction)
One number for each entry.

## Task Quote solubility (mole fraction) reported for Nc1cccc(Cl)c1C(=O)O please.
## Result 0.0859

---

# condition.parameters: in ethylene glycol, 298.15 K
metric.name: solubility (mole fraction)
One number for each entry.

## Task Supply solubility (mole fraction) value. Item: Nc1cccc(Cl)c1C(=O)O
## Result 0.0349

---

# condition.parameters: in water, 278.15 K
metric.name: solubility (mole fraction)
Give bare numbers.

## Task Supply recorded solubility (mole fraction) for Nc1cccc(Cl)c1C(=O)O here.
## Result 0.000571

---

# condition.parameters: in acetonitrile, 313.15 K
metric.name: solubility (mole fraction)

## Task Using the record for Nc1cccc(Cl)c1C(=O)O , state its measured solubility (mole fraction).
## Result 0.0377

---

# condition.parameters: in water, 293.15 K
metric.name: solubility (mole fraction)
One number for each entry.

## Task Please indicate solubility (mole fraction) recorded for Nc1cccc(Cl)c1C(=O)O
## Result 0.000965

---

# condition.parameters: in isobutanol, 293.15 K
metric.name: solubility (mole fraction)

## Task Return reported solubility (mole fraction). Input compound: Nc1cccc(Cl)c1C(=O)O
## Result 0.0244

---

# condition.parameters: in NMP, 318.15 K
metric.name: solubility (mole fraction)
Numbers only.

## Task Supply reported solubility (mole fraction) belonging to this compound: Nc1cccc(Cl)c1C(=O)O
## Result 0.178

---

# condition.parameters: in n-butanol, 318.15 K
metric.name: solubility (mole fraction)

## Task # return recorded solubility (mole fraction) for input Nc1cccc(Cl)c1C(=O)O
## Result 0.0786

---

# condition.parameters: in water, 308.15 K
metric.name: solubility (mole fraction)
Numbers only.

## Task State its solubility (mole fraction) for this molecule: Nc1cccc(Cl)c1C(=O)O
## Result 0.00169

---

# condition.parameters: in n-octanol, 278.15 K
metric.name: solubility (mole fraction)
One number for each entry.

## Task Identify measured solubility (mole fraction) corresponding to Nc1cccc(Cl)c1C(=O)O
## Result 0.00855

---

# condition.parameters: in ethylene glycol, 313.15 K
metric.name: solubility (mole fraction)
Answers are plain numbers.

## Task Please report the measured solubility (mole fraction) for Nc1cccc(Cl)c1C(=O)O
## Result 0.0601

---

# condition.parameters: in n-butanol, 323.15 K
metric.name: solubility (mole fraction)

## Task Check the records and state solubility (mole fraction) for Nc1cccc(Cl)c1C(=O)O
## Result 0.0958
